pIC50 values for the molecules below.
# Study System: UniProtKB P54829
# Sequence (P54829 197-565 limits assumed): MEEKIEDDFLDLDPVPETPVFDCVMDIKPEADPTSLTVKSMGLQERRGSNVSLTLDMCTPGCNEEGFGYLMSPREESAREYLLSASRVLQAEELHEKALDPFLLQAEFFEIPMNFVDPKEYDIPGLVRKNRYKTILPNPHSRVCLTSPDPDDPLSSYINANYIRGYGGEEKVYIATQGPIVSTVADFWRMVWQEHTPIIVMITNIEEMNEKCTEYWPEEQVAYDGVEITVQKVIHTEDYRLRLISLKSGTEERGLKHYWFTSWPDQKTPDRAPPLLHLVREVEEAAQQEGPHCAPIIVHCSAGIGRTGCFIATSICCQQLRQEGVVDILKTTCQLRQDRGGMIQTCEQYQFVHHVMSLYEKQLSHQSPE
pIC50: −log10 of the molar value.

Please review the entries below; each comes with its answer.
Look up pIC50 of CNc1nc(-c2cnccn2)nc2c(F)c(-c3ccc(F)cc3F)ccc12 and report it.
5.00 to 6.00

Look up pIC50 of CNc1nc(-c2cccnc2)nc2c(F)cc(-c3cccc(C#N)c3)cc12 and report it.
> 6.00

Look up pIC50 of CNc1nc(-c2cccnc2)nc2c(F)c(-c3ccsc3)ccc12 and report it.
5.00 to 6.00

Look up pIC50 of CNc1nc(-c2cccnc2)nc2c(OC)cc(-c3ccccc3Cl)cc12 and report it.
5.00 to 6.00

Look up pIC50 of CNc1nc(-c2cccnc2)nc2c(F)c(-c3cccs3)ccc12 and report it.
5.00 to 6.00

Look up pIC50 of CNc1nc(-c2cccnc2)nc2cc(-c3cccc(F)c3F)c(F)cc12 and report it.
5.00 to 6.00

Look up pIC50 of CCCOc1ccc2nc(-c3cccnc3)nc(N3CCc4cc(Cl)ccc43)c2c1 and report it.
> 6.00

Look up pIC50 of CNC(=O)C1CN(c2nc(-c3cccnc3)nc3ccc(-c4ccc(F)cc4F)cc23)C1 and report it.
5.00 to 6.00

New cases:
Look up pIC50 of Fc1cccc(-c2ccc3nc(-c4ccnnc4)nc(NCc4ccccn4)c3c2)c1F and report it.
< 5.00

Look up pIC50 of CNc1nc(-c2cccnc2)nc2ccc(-c3ccc(C)cc3F)cc12 and report it.
5.00 to 6.00

Look up pIC50 of CC(Nc1nc(-c2cccnc2)nc2ccc(-c3cccc(F)c3)cc12)c1ccccc1 (centres unmarked) and report it.
5.00 to 6.00

Look up pIC50 of CC(Nc1nc(-c2cccnc2)nc2ccc(-c3ccc(F)c(F)c3)cc12)c1ccccc1 (centres unmarked) and report it.
5.00 to 6.00

Look up pIC50 of COc1ccc2c(N3CCc4cc(Cl)ccc43)nc(-c3cccnc3)nc2c1 and report it.
5.00 to 6.00

Look up pIC50 of CNc1nc(-c2cccnc2)nc2cc(C)c(-c3ccc(F)c(OC)c3)cc12 and report it.
< 5.00

Look up pIC50 of CC(Nc1nc(-c2cccnc2)nc2cc(-c3cc(F)cc(F)c3)ccc12)c1ccccn1 (centres unmarked) and report it.
5.00 to 6.00

Look up pIC50 of CNc1nc(-c2ccc(F)nc2)nc2cc(-c3cc(F)ccc3F)ccc12 and report it.
5.00 to 6.00

Look up pIC50 of CNc1nc(-c2cccnc2)nc2ccc(-c3cccc(OC(C)C)c3)cc12 and report it.
< 5.00

Look up pIC50 of COc1ccc2nc(-c3cccnc3)nc(N3CCc4ccc(Cl)cc43)c2c1 and report it.
5.00 to 6.00

Look up pIC50 of Fc1ccc(-c2ccc3nc(-c4cccnc4)nc(N4CCC4)c3c2)c(F)c1 and report it.
5.00 to 6.00

Look up pIC50 of CC(Nc1nc(-c2cccnc2)nc2cc(-c3cc(F)ccc3F)ccc12)c1ccccn1 (centres unmarked) and report it.
5.00 to 6.00
